Provenance of the data: the supplement of paper PMC10567573

B1: DLC1 (parent)
chain: RDAIEALCRRLNTLNKCAVMKLEI

- Variants of: B1
- assay_explanation: protein stability index of a GFP-peptide fusion (GPS, HEK-293T) (PSI 1-6); higher = more stable;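 note: lentivirally expressed fusions sorted by FACS into six bins by GFP to DsRed ratio, PSI derived from sequencing read proportions per bin multiplied by bin number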
- experimental_parameters: c terminus: a fixed tail appended
measure_name: protein stability index

INSERT INTO measurements (mutation_string, measure_name, value_measured) VALUES
  ('I24F', 'protein stability index', 2.04),
  ('A6Y', 'protein stability index', 1.73),
  ('M20R', 'protein stability index', 1.27),
  ('N15Q', 'protein stability index', 5.09),
  ('L11T', 'protein stability index', 2.52),
  ('L7R', 'protein stability index', 2.13),
  ('M20A', 'protein stability index', 1.01),
  ('R1N', 'protein stability index', 1.64),
  ('A18H', 'protein stability index', 2.23),
  ('E5S', 'protein stability index', 1.83),
  ('T13I', 'protein stability index', 2.04);
